Biological target: GOLGB1 Golgin subfamily B member 1 (Homo sapiens, UniProt Q14789)
Construct: isoTOP-ABPP experiments performed in cell lysates (in vitro); endogenous in cells; host or cells: soluble proteome of human cancer cell lines (MDA-MB-231, Ramos, Jurkat)
Sequence (Q14789 whole entry): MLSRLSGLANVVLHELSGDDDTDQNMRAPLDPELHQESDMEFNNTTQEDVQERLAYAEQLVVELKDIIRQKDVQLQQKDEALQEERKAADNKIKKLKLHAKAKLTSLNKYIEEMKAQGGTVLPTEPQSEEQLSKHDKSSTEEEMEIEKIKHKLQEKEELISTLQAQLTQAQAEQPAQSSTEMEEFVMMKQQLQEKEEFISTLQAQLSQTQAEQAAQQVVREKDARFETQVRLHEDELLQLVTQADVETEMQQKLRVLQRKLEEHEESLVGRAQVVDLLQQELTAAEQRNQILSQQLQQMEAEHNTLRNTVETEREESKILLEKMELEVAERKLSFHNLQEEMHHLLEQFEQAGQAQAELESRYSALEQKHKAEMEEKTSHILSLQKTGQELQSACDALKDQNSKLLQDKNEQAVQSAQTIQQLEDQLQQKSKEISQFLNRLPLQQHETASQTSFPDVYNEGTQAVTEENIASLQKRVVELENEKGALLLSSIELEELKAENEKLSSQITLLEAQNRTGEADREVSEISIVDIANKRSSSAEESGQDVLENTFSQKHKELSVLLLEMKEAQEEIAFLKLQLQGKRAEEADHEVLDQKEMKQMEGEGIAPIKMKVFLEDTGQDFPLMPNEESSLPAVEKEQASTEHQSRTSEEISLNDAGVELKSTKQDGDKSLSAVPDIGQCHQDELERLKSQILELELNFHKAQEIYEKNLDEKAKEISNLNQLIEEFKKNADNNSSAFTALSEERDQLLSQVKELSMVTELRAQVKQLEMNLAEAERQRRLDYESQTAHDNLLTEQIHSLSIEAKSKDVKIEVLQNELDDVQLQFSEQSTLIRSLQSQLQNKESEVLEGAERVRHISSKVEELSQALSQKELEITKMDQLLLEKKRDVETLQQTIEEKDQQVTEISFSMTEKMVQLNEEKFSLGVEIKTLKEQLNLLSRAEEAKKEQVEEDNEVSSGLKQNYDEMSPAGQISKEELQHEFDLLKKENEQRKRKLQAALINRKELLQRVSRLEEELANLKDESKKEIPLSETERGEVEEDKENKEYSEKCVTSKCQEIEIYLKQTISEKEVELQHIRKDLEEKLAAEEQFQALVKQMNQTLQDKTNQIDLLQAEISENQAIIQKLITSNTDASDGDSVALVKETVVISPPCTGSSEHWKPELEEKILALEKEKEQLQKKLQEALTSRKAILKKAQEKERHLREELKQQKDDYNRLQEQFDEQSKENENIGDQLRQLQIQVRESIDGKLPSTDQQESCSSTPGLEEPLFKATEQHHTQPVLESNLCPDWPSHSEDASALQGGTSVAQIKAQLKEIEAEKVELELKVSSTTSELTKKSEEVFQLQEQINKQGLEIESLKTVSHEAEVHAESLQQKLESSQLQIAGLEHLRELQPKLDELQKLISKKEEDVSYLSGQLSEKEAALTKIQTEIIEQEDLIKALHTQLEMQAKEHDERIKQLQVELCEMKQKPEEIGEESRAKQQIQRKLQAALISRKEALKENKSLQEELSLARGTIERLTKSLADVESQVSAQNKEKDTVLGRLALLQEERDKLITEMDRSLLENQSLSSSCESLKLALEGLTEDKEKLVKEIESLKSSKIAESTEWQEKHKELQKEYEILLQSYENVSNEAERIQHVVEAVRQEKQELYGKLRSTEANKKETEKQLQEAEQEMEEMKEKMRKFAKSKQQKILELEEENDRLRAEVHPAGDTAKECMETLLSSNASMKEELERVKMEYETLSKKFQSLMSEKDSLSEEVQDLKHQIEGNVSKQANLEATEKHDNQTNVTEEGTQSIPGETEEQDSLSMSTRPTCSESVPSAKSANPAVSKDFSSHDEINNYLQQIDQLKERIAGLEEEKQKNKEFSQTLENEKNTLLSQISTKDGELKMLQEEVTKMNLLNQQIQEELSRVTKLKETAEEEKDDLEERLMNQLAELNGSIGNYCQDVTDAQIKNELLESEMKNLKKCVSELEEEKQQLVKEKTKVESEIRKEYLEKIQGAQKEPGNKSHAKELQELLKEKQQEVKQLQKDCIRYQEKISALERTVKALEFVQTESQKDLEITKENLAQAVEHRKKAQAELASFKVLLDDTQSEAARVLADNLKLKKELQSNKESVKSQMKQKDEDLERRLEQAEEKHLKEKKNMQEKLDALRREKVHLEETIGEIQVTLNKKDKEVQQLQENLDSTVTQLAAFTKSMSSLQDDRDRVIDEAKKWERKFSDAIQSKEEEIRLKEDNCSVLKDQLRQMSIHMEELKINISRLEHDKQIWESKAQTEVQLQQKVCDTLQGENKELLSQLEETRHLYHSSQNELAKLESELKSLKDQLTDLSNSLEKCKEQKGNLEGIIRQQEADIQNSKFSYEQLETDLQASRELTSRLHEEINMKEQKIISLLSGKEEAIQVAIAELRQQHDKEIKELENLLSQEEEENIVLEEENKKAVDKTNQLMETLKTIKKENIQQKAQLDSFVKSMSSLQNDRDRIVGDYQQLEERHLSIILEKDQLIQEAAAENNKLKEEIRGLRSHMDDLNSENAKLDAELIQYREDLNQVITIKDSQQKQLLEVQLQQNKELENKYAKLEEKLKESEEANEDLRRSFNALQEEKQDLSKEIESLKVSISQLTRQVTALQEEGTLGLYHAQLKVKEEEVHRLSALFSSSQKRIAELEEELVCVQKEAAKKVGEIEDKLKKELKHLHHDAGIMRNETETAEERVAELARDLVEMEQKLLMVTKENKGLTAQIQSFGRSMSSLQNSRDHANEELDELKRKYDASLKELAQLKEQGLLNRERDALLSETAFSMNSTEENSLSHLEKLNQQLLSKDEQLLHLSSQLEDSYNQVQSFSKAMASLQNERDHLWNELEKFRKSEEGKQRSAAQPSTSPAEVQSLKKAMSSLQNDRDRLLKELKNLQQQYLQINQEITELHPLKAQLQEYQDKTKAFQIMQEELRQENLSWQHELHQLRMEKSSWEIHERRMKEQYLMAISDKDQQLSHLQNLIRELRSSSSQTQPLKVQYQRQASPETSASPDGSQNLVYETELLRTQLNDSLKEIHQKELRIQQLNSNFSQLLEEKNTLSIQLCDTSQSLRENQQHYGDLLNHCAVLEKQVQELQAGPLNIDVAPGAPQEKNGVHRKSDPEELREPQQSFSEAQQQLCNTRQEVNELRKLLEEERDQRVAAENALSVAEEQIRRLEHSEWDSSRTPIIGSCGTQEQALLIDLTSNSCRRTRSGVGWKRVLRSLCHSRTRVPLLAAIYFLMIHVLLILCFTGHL
Experiment: competitive isoTOP-ABPP
Format: binding
Conditions: 50 uM, in vitro, sol, 231
Quantity: isoTOP-ABPP ratio (R) at liganded lysine Q14789_K103
Answer using only a numeral; do not append any unit.

Compound	System Under Test	Observed
O=C(Oc1ccc([N+](=O)[O-])cc1[N+](=O)[O-])c1ccc2ccccc2n1	GOLGB1 Golgin subfamily B member 1 (Homo sapiens, UniProt Q14789)	0.9
O=C(Oc1ccc([N+](=O)[O-])cc1[N+](=O)[O-])C(c1ccccc1)(c1ccccc1)c1ccccc1 [fragment 42, 2,4-Dinitrophenyl 2,2,2-triphenylacetate]	GOLGB1 Golgin subfamily B member 1 (Homo sapiens, UniProt Q14789)	0.9

**Query** Which isoTOP-ABPP ratio (R) at liganded lysine Q14789_K103 is reported for this compound? O=C(Oc1ccc([N+](=O)[O-])cc1[N+](=O)[O-])c1ccc(Oc2ccccc2)cc1 [fragment 39, 2,4-Dinitrophenyl 4-phenoxybenzoate]
**Result** 0.9

The reported numbers originate from patent US20210255193A1.
